# experimental.target: β5c in HepG2 cells (Homo sapiens)
# Construct: endogenous in cells
# assay.procedure: Intracellular β5c inhibition in HepG2 cells (suc-LLVY-luciferin)
# details: 2 hours treatment, read-out: IC50 HepG β5c
property.name: IC50

Record request: IC50 value, item Cc1ccc(S(=O)(=O)N[C@@H](CC(=O)NC(C)(C)C)C(=O)NCCNC(=O)c2cc(-c3ccccc3F)ccc2F)cc1 [PKS21221] 2 µM

---

# experimental.target: human constitutive proteasome β5c (Homo sapiens, UniProt P28074)
# Construct: purchased Boston Biochem Inc
# assay.procedure: IC50 against chymotryptic β5c activity of human constitutive proteasome (96-well plate, Suc-LLVY-AMC)
# Format: biochemical
# details: β5c; substrate Suc-LLVY-AMC; read-out: IC50 Hu c-20S (Suc-LLVY-AMC)
property.name: IC50 (µM)
Record the value in µM, omitting the unit from your answer.

CC(C)(C)NC(=O)C[C@H](NC(=O)CCc1ccccc1)C(=O)NCCNC(=O)c1cccc2ccccc12 :: 1.22

Any idea what its IC50 is? The compound is `Cc1ccc(S(=O)(=O)NCC(=O)NCCNC(=O)c2cc(-c3ccccc3F)ccc2F)cc1` 60.8

Request the reported IC50 associated with `CC(C)(C)NC(=O)C[C@H](NS(=O)(=O)C1CC1)C(=O)NCCNC(=O)c1cc(-c2ccccc2F)ccc1F` 0.96

Which IC50 value is on record for `CC(C)(C)NC(=O)C[C@H](NC(=O)CCc1ccccc1)C(=O)NCCNC(=O)c1cc(-c2cccc(F)c2)ccc1F` ? 1.94

Param item = `Cc1cc(C(=O)N[C@@H](CC(=O)NC(C)(C)C)C(=O)NCCNC(=O)c2cc(-c3ccccc3F)ccc2F)no1` ; retrieve measured IC50. 1.04

Data provenance is patent US11629141B2.
